Recorded values, source the DeepSol protein solubility set.

MEASUREMENT NOTES: soluble on expression in E. coli; label from the status in PepcDB or PDB records

{"SEQUENCE CHAIN": "MLTSFGQILRKLFCIDCSERLLDMADKLGVSVAFLSSVKIGKKSVPVGIFVRTLENFSQQDLAEFKKLLEKVGKKRGTLYRHVGKSYSRTFIYTSRTLKKHT", "soluble on expression in E. coli": "not soluble"}
{"SEQUENCE CHAIN": "SSTFEDADTEETVTCLQMTIYHPGQQSGIFKSIRFCSKEKFPSIEVVKFGRNSNMCQYTFQDKQVSRIQFVLQPFKQFNSSVLSFEIKNMSKKTSLMVDNQELGYLNKMDLPYKCMLRFGEYQFLLQKEDGESVESFETQFIMSSRPLLQENNWPTQNPIPEDGMYSSYFTHRSSPSEMDENEL", "soluble on expression in E. coli": "soluble"}
{"SEQUENCE CHAIN": "PADFNGTWEMLSNDNFEDVMKALDIDFATRKIAVHLKQTKVIVQNGDKFETKTLSTFRNYEVNFVIGEEFDEQTKGLDNRTVKTLVKWDGDKLVCVQKGEKENRGWKQWIEGDLLHLEIHCQDKVCHQVFKKKN", "soluble on expression in E. coli": "soluble"}
{"SEQUENCE CHAIN": "MAHHHHHHMGIYSDTDDDSPIGIEVVGEASSDSEEPNPHSTTKRKVSGAVDHNNGYNQKKNKRRRLKNKWEENPQLHETPDEEQISNVKKRVYVLDTCSIVEHIEWSILEEVAKYYLIIIPKKVMDELGKMEGGRGSTCNRVLNKLENEHTSNKMNVGFRLQRKNDKDKNVLSAARVNDDHILSCACSFRNEHDVVLVTSDNILKLKAYAEGIPTVSTLKDVTRLTNGLRGGKFE", "soluble on expression in E. coli": "not soluble"}
{"SEQUENCE CHAIN": "MGSDKIHHHHHHMKIAVINFSGNVGKTTVSRHLLLPRIQGAELISVESVNADEGKTTALRGGQFAELQEYLQTVNSAIVDIGASNVDQLLFLMQSYRGSHEDFDCFVVPTVPPLKQQQDTIATLIDLSRLGVPPSRLKILFNMTEPGRPVEQTFYLLLAYLAQHPIAVPNTACSLGANEIYGRIRGIKSDLGTLARDTTDYKSLIAKAKDATEKLALAQKLATRRLASGVVLELDACFGALDLHALSAGASPTETSAEA", "soluble on expression in E. coli": "not soluble"}
{"SEQUENCE CHAIN": "MISDRPGLPGEDMRLALLSFENYLLANRNTEKPVLHIALSPAPEDKLTDEQLAELAQNYMQKMGYGDQPYIAYKHGDTHNTHIHIVSVCVDEEGRKINDSFEHRRSMTACRELEIDFGLRNGADMEERNQKAEMKKVDATQGDVRHQIGNTLKAVLESYRFQTFGEYSALLSTLNIEAKQVRGEFKGEPYTGIIYSATDDSGKVVSPPFKSSRFGKRFGNERLEKRMLSHTRDFKDGKWAPTIHAQVVYAMRHARSREELAGLLKKARIDAVFRENEQGRIYGVTFIDHNRREVFNGSRMGKEFSANIYNELFKWWDGIPATERSAHTGTELWQHHSHKAESGSPLEQAASIFSMETNPVDYGEEALARRMKKRRKAKRKSRGILEHHHHHH", "soluble on expression in E. coli": "soluble"}
{"SEQUENCE CHAIN": "MSLKVWITGAGGMMGSHLAEMLLAAGHDVYATYCRPTIDPSDLQFNGAEVDITDWCSVYDSIATFRPDAVFHLAAQSYPAVSWARPVETLTTNMVGTAIVFEALRRVRPHAKIIVAGSSAEYGFVDPSEVPINERRELRPLHPYGVSKAATDMLAYQYHKSYGMHTVVARIFNCTGPRKVGDALSDFVRRCTWLEHHPEQSAIRVGNLKTKRTIVDVRDLNRALMLMLDKGEAGADYNVGGSIAYEMGDVLKQVIAACKRDDIVPEVDPALLRPTDEKIIYGDCSKLAAITGWQQEICLTQTIADMFDYWRSKSESAEGHHHHHH", "soluble on expression in E. coli": "soluble"}
{"SEQUENCE CHAIN": "REVYVLVIGETARACNFGLYGYERNTTPLLDKMEGVVTFTDVLTQSNTTHKSVPMLLSAASAEDYDCLYRQKGIITAFKEAGFHTAFFSNQLPNHSFIDFLGMEADDWKFIKKDAPKGANISDDELLFLVEKELKAGHQKLFIVLHAYGSHFNYKERYPESMSVFKPDNLTDAKYENKEYLMNAYDNTIRYTDGFLASLITLLQKTNSFSAMLYTSDHGEDIFDDNRKLFLHASPVPSYYQLHVPFLIWLSKTYREKNVEVHEAILQNREKPVAGNASVFHTMLNLAGVQTPYRADSLSVAN", "soluble on expression in E. coli": "not soluble"}
{"SEQUENCE CHAIN": "MSENNKIILYQDDNEIIRVSVRFSDEDLWLTQNQLAEIYCTTQQNISQHVDNIYKDGELFTEATNKKFLLVRQEGNRQVRRNIDHYNLDMVIALGYRVQSQVATRFRRWATQRLHEYIQKGFAMDDERLKQGGNRYFRELLQRIRDIRSSERNFYQQVTDIYATATDYDPRDEMTKMFFATVQNKLHYAVHENTAAEVIYNRVDNEKPFVGMTNFKGNYVTKDDVKIAKNYLSEIELQRLNLLVSGFLDFAEFQALEMNPMTMKDWIEALDNQIIAHKRKVLIDKGRISHKQAIEKAEKEFAIYRKREMDLLESDFDKEIKRLKDKNDNNPN", "soluble on expression in E. coli": "not soluble"}
{"SEQUENCE CHAIN": "MSLTNLLQKIGDAVTVVNFSLYEGFIFDMDGTLLDTMPAHLAAWEATAKHFDFPFDAQWLYGLGGMPSAKITTHINKKLGLALDPDRVAAYKMDWFASMGLQAEVIPATYELLCQWQGKKKMAIGTGSQRDSALRLLSNAQVLDKFDAVVTASDVQQHKPHPETFLMACEQLGLTPKQCLVFEDTQLGLQAAHAGGMDCMLVTEQGLVFYPFAHEGHHHHHH", "soluble on expression in E. coli": "soluble"}
{"SEQUENCE CHAIN": "MASIKKVYRGMKNGAETINDDLEAINSELTSGGNVVHKTGDETIAGKKTFTGNVEVNGSLTLPVQTLTVEAGNGLQLQLTKKNNDLVIVRFFGSVSNIQKGWNMSGTWVDRPFRPAAVQSLVGHFAGRDTSFHIDINPNGSITWWGANIDKTPIATRGNGSYFIK", "soluble on expression in E. coli": "soluble"}
{"SEQUENCE CHAIN": "MSLAEKKERIRFMTVDDVDAVVRVEEQTFTVPWSREAFINEVTNNQFARYVVYEVGEQIVGYCGVWVVYDESHITNIAIHPDYRGEKRGEALLRYILEFARLLGAKKLSLEVRISNEIAQRLYRKFGFQAGGIRKNYYTDNQEDALVMWVMLSEGHHHHHH", "soluble on expression in E. coli": "soluble"}
